- protocol-text: NCI Yeast Anticancer Drug Screen. Data for the bub3 strain (AID 167)
- test-context: S. cerevisiae bub3 mutant strain, at 50.0 µM, active compounds read high
The panel holds about 79,000 compounds, 15% with a hit somewhere; the sample as a whole holds those more often. The source made the active and inactive calls. Rule as the data show it: active = growth inhibition above about 70%; inactive = the rest. Where a SMILES comes first, the peptide text is derived from it. The star is where a group is joined. Cbz = O=C(OCc1ccccc1)*
growth inhibition by entry:

Consider the worked cases shown below.
**Q:** May I ask what growth inhibition has been recorded for NC(=O)N/N=C/c1cccc2ccccc12 ?
**A:** 4.05% (inactive)

**Q:** Here is the next molecule: CCCCOC(=O)N1CCCCC1
**A:** -14.3% (inactive)

**Q:** Here is the next molecule: O=P(O)(O)Oc1ccc(NCCO)cc1
**A:** 7.55% (inactive)

**Q:** Here is the next molecule: CCN(CC)CC(C)(C)C(O)c1ccc(OC)c2ccccc12 (stereo unspecified)
**A:** 9.45% (inactive)

**Q:** Here is the next molecule: CC12CC(=O)C3C(CCC4CC(OS(=O)(=O)O)CCC43C)C1CC1OC(=O)C=C12 (stereo unspecified)
**A:** -0.9% (inactive)

**Q:** Here is the next molecule: CCOC(=O)C(N=Nc1ccccc1)C(=O)c1ccccc1 (stereo unspecified)
**A:** 38.8% (inactive)

***
**Q:** May I ask what growth inhibition has been recorded for O=C1C2(CCCC13OC3c1ccccc1)OC2c1ccccc1 (stereo unspecified) ?
**A:** 23.3% (inactive)

**Q:** Here is the next molecule: CC(NC(=O)OCc1ccccc1)C(=O)NC(CO)C(N)=O (stereo not drawn) (Cbz-Ala-Ser-NH2; configuration not given here)
**A:** 5.95% (inactive)

**Q:** Here is the next molecule: c1ccc(-c2ccc(-c3ccccc3)cc2)cc1
**A:** 18.6% (inactive)

**Q:** Here is the next molecule: Cc1[nH]n(-c2ccccc2)c(=S)c1C(=O)c1ccccc1
**A:** 2.25% (inactive)

**Q:** Here is the next molecule: Cc1ccccc1[B-]12OCC[N+]1(CNC(=O)c1ccccc1O)CCO2 (stereo unspecified)
**A:** 1.35% (inactive)

* * *

growth inhibition by entry:
- protocol-text: NCI Yeast Anticancer Drug Screen. Data for the mec2-1 strain (AID 157)
- test-context: S. cerevisiae mec2-1 strain, at 50.0 µM, active compounds read high
Compounds without any hit were thinned out: in the full panel of roughly 79,000, 15% have a hit.
Numbers only; they are read as %.

Consider the worked cases shown below.
**Q:** May I ask what growth inhibition has been recorded for COc1ccc(CSCc2cc(OC)c(OC)c(OC)c2)cc1 ?
**A:** 16.8

**Q:** Here is the next molecule: Nc1ncnc2c1nnn2C1C=CC(CP(=O)(O)O)C1 (configuration not stated)
**A:** 8.25

**Q:** Here is the next molecule: CCC(=S)Nc1ccc(Cl)cc1
**A:** -44.6

**Q:** Here is the next molecule: Cc1ccc(S(=O)(=O)N/N=C2/CC3CCC2C3)cc1 (configuration not stated)
**A:** 1.3

**Q:** Here is the next molecule: COc1ccc(-c2cc(=O)c3ccc(O)cc3o2)c(OC)c1OC
**A:** -10.4

***
**Q:** May I ask what growth inhibition has been recorded for O=S1(=O)CC(O)C(Br)C1 (configuration not stated) ?
**A:** 24.1

**Q:** Here is the next molecule: CNC1C(O)C(OC2C(N)CC(N)C(OC3OC(CN)C(O)C(O)C3O)C2O)OCC1(C)O (configuration not stated)
**A:** -17.1

**Q:** Here is the next molecule: COc1ccccc1CC/C(C)=N/NS(=O)(=O)c1ccc(C)cc1
**A:** 4.1

* * *

- protocol-text: NCI Yeast Anticancer Drug Screen. Data for the bub3 strain (AID 167)
- test-context: S. cerevisiae bub3 mutant strain, at 50.0 µM, active compounds read high
- Protocol: Growth inhibition of yeast strains with defined genetic alterations is measured as a screen for potential anti-cancer activity. Selected strains with alterations in DNA damage repair or cell cycle control were exposed to compounds and growth inhibition was measured relative to vehicle treated controls. The strain used in this assay is bub3
About 79,000 compounds went through this panel and 15% of them were active in at least one assay; those are over-represented in the sample as a whole. The source made the active and inactive calls. Cut-off read from the data, not from the text of the source: active = growth inhibition above about 70%; inactive = the rest.
value-kind: growth inhibition

Consider the worked cases shown below.
**Q:** May I ask what growth inhibition has been recorded for Nc1ccc(C(=O)O)cn1 ?
**A:** 9.95% (inactive)

**Q:** Here is the next molecule: O=C(O)CN1C(=O)c2ccc([N+](=O)[O-])cc2C1=O
**A:** -16.5% (inactive)

**Q:** Here is the next molecule: CC(=O)C(C)(C)Cc1cc(C(C)(C)CC=O)on1
**A:** 29.1% (inactive)

**Q:** Here is the next molecule: Cc1ccncc1S(=O)(=O)O
**A:** 1.7% (inactive)

**Q:** Here is the next molecule: Cc1nc(-c2ccccc2)cc2c1c(=O)oc1ccccc12
**A:** -5.4% (inactive)

**Q:** Here is the next molecule: COc1cc(C2c3cc4c(cc3OC(N3CCCCC3)C2C)OCO4)cc(OC)c1OC (stereo not given)
**A:** -23.6% (inactive)

**Q:** Here is the next molecule: CC(C)(C)c1cc(C(C)(C)C)c(P(C(O[Si](C)(C)C)=C(c2ccccc2)c2ccccc2)C(O[Si](C)(C)C)=C(c2ccccc2)c2ccccc2)c(C(C)(C)C)c1
**A:** -5% (inactive)

**Q:** Here is the next molecule: CCCNC(=S)N/N=C\C(C)=N\Nc1ccc(Cl)cc1
**A:** 7.5% (inactive)

**Q:** Here is the next molecule: COC(=O)[CH2][Ge]([c]1ccccc1)[c]1ccccc1.COC(=O)[CH2][Ge]([c]1ccccc1)[c]1ccccc1
**A:** -12.2% (inactive)

***
**Q:** May I ask what growth inhibition has been recorded for CCn1c(=O)c(Cl)c2n(C)c3ccccc3n2c1=O ?
**A:** 10.6% (inactive)

* * *

- protocol-text: NCI Yeast Anticancer Drug Screen. Data for the rad50 strain (AID 155);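 also: 0% = growth of vehicle-only cultures of the same strain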
- test-context: S. cerevisiae rad50 strain growth inhibition; at 50.0 µM; active compounds read high
This is part of a sample that, as a whole, favours compounds with a hit. Of some 79,000 tested, about 15% had one in any assay.
growth inhibition by entry:
Numbers only; they are read as %.

Consider the worked cases shown below.
**Q:** May I ask what growth inhibition has been recorded for CCOC(=O)CC(C(C)=O)C(=O)OCC (centres undefined) ?
**A:** 14.9

**Q:** Here is the next molecule: CC(=O)OC(c1ccc2c(c1)OCO2)C(C)(C)C (centres undefined)
**A:** 17

**Q:** Here is the next molecule: O=C1CCC(=O)N1Cc1ccccc1N=[N+]([O-])c1ccccc1CN1C(=O)CCC1=O
**A:** -37.2

***
**Q:** May I ask what growth inhibition has been recorded for NC(N)=N/N=C(\c1ccc(Cl)cc1)C1CC1 ?
**A:** 2.7

**Q:** Here is the next molecule: Cc1ccc(S(=O)c2cccs2)cc1 (centres undefined)
**A:** 2.15

* * *

- protocol-text: NCI Yeast Anticancer Drug Screen. Data for the mlh1 rad18 strain (AID 175)
- test-context: S. cerevisiae mlh1 rad18 strain growth inhibition; at 50.0 µM; active compounds read high
The panel holds about 79,000 compounds, 15% with a hit somewhere; the sample as a whole holds those more often.
Parameter threshold = 10%. Response is True when growth inhibition meets or exceeds it, else False.

**Q:** Tell me whether growth inhibition is at least 10% here: C/C(=N/N(C)C)c1ccc(C)cc1
**A:** True

***
**Q:** Tell me whether growth inhibition is at least 10% here: Cc1ccc(S(=O)(=O)N/N=C/c2oc(-c3ccncc3)c(-c3ccncc3)c2[N+](=O)[O-])cc1
**A:** True

**Q:** Here is the next molecule: C1CCN=C(N2CCCCCC2)CC1
**A:** False

**Q:** Here is the next molecule: CCOC(=O)C1C=NC([N+](=O)[O-])=C1Br (stereo not drawn)
**A:** False

**Q:** Here is the next molecule: COc1ccc(C(=O)c2cccc(C(=O)c3ccc(OC)cc3)c2)cc1
**A:** False

**Q:** Here is the next molecule: COC1=C2CC(C)CC(OC)C(OC(C)=O)C(C)/C=C(\C)C(OC(N)=O)C(OC)/C=C\C=C(/C)C(=O)NC(=CC1=O)C2=O (stereo not drawn)
**A:** True

**Q:** Here is the next molecule: CCN1CCCCC(=N\O)/C(=N/O)CCCC1
**A:** False

**Q:** Here is the next molecule: CC1CCCC2(CC[N+](C)(CCC[N+](C)(C)C)CC2)C1 (stereo not drawn)
**A:** False

**Q:** Here is the next molecule: CC(C)c1nc2c([nH]1)c(=O)n(C)c(=O)n2C
**A:** True

**Q:** Here is the next molecule: Oc1ccc2cc(O)ccc2c1
**A:** False

**Q:** Here is the next molecule: c1ccc(C2CN3CCSC3=N2)cc1 (stereo not drawn)
**A:** False

**Q:** Here is the next molecule: CCCCC(=O)NC1=CC(=O)c2ccccc2C1=O
**A:** True

**Q:** Here is the next molecule: CC(NC(=O)C(C)(C)C)c1ccc(-c2ccccc2)cc1 (stereo not drawn)
**A:** True

**Q:** Here is the next molecule: CCCCOC(=O)NC(=O)c1cc2cc(I)cc(I)c2oc1=O
**A:** True

**Q:** Here is the next molecule: O=C(CC(=O)Nc1ccccc1)N/N=C/c1cc(N=Nc2ccc(Br)cc2)ccc1O
**A:** True

**Q:** Here is the next molecule: O=C1c2[nH]c3ccccc3c2CN1CCc1ccccc1
**A:** False

**Q:** Here is the next molecule: OC1CCC2=C(C1)C1CCC2C1 (stereo not drawn)
**A:** True

**Q:** Here is the next molecule: CC1=C(C(=O)NCc2ccccc2)C(c2ccco2)C(C(=O)NCc2ccccc2)=C(C)N1
**A:** False

**Q:** Here is the next molecule: COc1cc2c(cc1C/C=C/c1ccccc1)OCO2
**A:** False
